Test system: SK-BR-3
Experiment: Cytotoxicity against human SKBR3 cells after 48 hrs by SRB assay
Assay type: functional
Conditions: SK-BR-3, 48 h, read-out: LC50 (the source's name)
Label key: y means CC50 under 0.4 µM; n means CC50 of 0.4 µM or more.

smiles-str	class-assignment
C/C=C1\NC(=O)[C@H](Cc2ccccc2)NC(=O)[C@@H](C(C)C)NC(=O)[C@@H]([C@H](C)CC)NC(=O)[C@H](NC(=O)[C@H](NC(=O)[C@H](CCCN)NC(=O)[C@H]2CCCN2C(=O)[C@H](NC(=O)[C@@H](NC(=O)[C@H](CCC(=O)O)NC(=O)[C@H](NC(=O)CCCC(C)C)C(C)C)C(C)C)C(C)C)[C@H](C)CC)[C@H](C)OC(=O)[C@H](C(C)C)NC1=O	y
C/C=C1\NC(=O)[C@H](Cc2ccccc2)NC(=O)[C@@H](C(C)C)NC(=O)[C@@H]([C@H](C)CC)NC(=O)[C@H](NC(=O)[C@H](NC(=O)[C@H](CCCN)NC(=O)[C@H]2CCCN2C(=O)[C@H](NC(=O)[C@H](CC(C)C)NC(=O)[C@@H](NC(=O)[C@H](NC(=O)CCCC(C)C)C(C)C)[C@@H](C)O)C(C)C)[C@H](C)CC)[C@H](C)OC(=O)[C@H](C(C)C)NC1=O	n
C/C=C1\NC(=O)[C@H](Cc2ccccc2)NC(=O)[C@@H](C(C)C)NC(=O)[C@@H]([C@H](C)CC)NC(=O)[C@H](NC(=O)[C@H](NC(=O)[C@H](CCCN)NC(=O)[C@H]2CCCN2C(=O)[C@H](NC(=O)[C@@H](NC(=O)[C@@H](NC(=O)[C@H](NC(=O)CC[C@@H](C)CC)C(C)C)[C@@H](C)OC(=O)C(F)(F)F)C(C)C)C(C)C)[C@H](C)CC)[C@H](C)OC(=O)[C@H](C(C)C)NC1=O	y
C/C=C1\NC(=O)[C@H](Cc2ccccc2)NC(=O)[C@@H](C(C)C)NC(=O)[C@@H]([C@H](C)CC)NC(=O)[C@H](NC(=O)[C@H](NC(=O)[C@H](CCCNC(=O)C(F)(F)F)NC(=O)[C@H]2CCCN2C(=O)[C@H](NC(=O)[C@@H](NC(=O)[C@@H](NC(=O)[C@H](NC(=O)CC[C@@H](C)CC)C(C)C)[C@@H](C)O)C(C)C)C(C)C)[C@H](C)CC)[C@H](C)OC(=O)[C@H](C(C)C)NC1=O	y
C/C=C1\NC(=O)[C@H](Cc2ccccc2)NC(=O)[C@@H](C(C)C)NC(=O)[C@@H]([C@H](C)CC)NC(=O)[C@H](NC(=O)[C@H](NC(=O)[C@H](CCCN)NC(=O)[C@H]2CCCN2C(=O)[C@H](NC(=O)[C@H](CCC2CCCCC2)NC(=O)[C@@H](NC(=O)[C@@H](CC2CCCCC2)NC(=O)CCCC(C)C)[C@@H](C)O)C(C)C)[C@H](C)CC)[C@H](C)OC(=O)[C@H](C(C)C)NC1=O	n
C/C=C1\NC(=O)[C@H](Cc2ccccc2)NC(=O)[C@@H](C(C)C)NC(=O)[C@@H]([C@H](C)CC)NC(=O)[C@H](NC(=O)[C@H](NC(=O)[C@H](CCCNC(=O)CCOCCOCCN)NC(=O)[C@H]2CCCN2C(=O)[C@H](NC(=O)[C@@H](NC(=O)[C@@H](NC(=O)[C@H](NC(=O)CCCC(C)C)C(C)C)[C@@H](C)O)C(C)C)C(C)C)[C@H](C)CC)[C@H](C)OC(=O)[C@H](C(C)C)NC1=O	y
C/C=C1\NC(=O)[C@H](Cc2ccccc2)NC(=O)[C@@H](C(C)C)NC(=O)[C@@H]([C@H](C)CC)NC(=O)[C@H](NC(=O)[C@H](NC(=O)[C@H](CCCN)NC(=O)[C@H]2CCCN2C(=O)[C@H](NC(=O)[C@@H](NC(=O)[C@H](CCC(N)=O)NC(=O)[C@H](NC(=O)CCCC(C)C)C(C)C)C(C)C)C(C)C)[C@H](C)CC)[C@H](C)OC(=O)[C@H](C(C)C)NC1=O	y
C/C=C1\NC(=O)[C@H](Cc2ccccc2)NC(=O)[C@@H](C(C)C)NC(=O)[C@@H]([C@H](C)CC)NC(=O)[C@H](NC(=O)[C@H](NC(=O)[C@H](CCCN)NC(=O)[C@H]2CCCN2C(=O)[C@H](NC(=O)[C@@H](NC(=O)[C@@H](NC(=O)[C@H](NC(=O)CCCC(C)C)C(C)C)[C@@H](C)O)C(C)C)C(C)C)[C@H](C)CC)[C@@H](C)OC(=O)[C@H](C(C)C)NC1=O	n
C/C=C1\NC(=O)[C@H](Cc2ccccc2)NC(=O)[C@@H](C(C)C)NC(=O)[C@@H]([C@H](C)CC)NC(=O)[C@H](NC(=O)[C@H](NC(=O)[C@H](CCCN)NC(=O)[C@H]2CCCN2C(=O)[C@H](NC(=O)[C@@H](NC(=O)[C@@H](NC(=O)[C@H](NC(=O)CCCCCCC)C(C)C)[C@@H](C)O)C(C)C)C(C)C)[C@H](C)CC)[C@H](C)OC(=O)[C@H](C(C)C)NC1=O	y
